Source listed as the supplement of paper PMC7156485.

For each of the compounds below, state its cell number.
- Test system: TDF
- Experiment: cell number relative to DMSO (% of DMSO); higher = more cells (less growth inhibition / toxicity);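 note: TDF denotes transformed human dermal fibroblasts of mesenchymal origin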
- Conditions: concentration: 10 µM; 24 h
Answers are plain numbers.

Reference set, count: 3
Compound	cell number
C[C@H](CCC(=O)O)[C@H]1CC[C@H]2[C@@H]3C[C@H](O)[C@@H]4C[C@H](O)CC[C@]4(C)[C@H]3CC[C@]12C [(3alpha,5beta,6alpha)-3,6-dihydroxycholan-24-oic acid]	98.6
CN(C)CCCN1c2ccccc2CCc2ccccc21.Cl [Imipramine hydrochloride]	98.4
CCCCCC(O)C=CC=CCCCCCCCC(=O)O (centres undefined)	97.2

API: the following record is the query input.
// cell number lookup, key: CCC1OC(=O)C(C)C(OC2CC(C)(OC)C(O)C(C)O2)C(C)C(OC2OC(C)CC(N(C)C)C2O)C(C)(OC)CC(C)C(=O)C(C)C(O)C1(C)O (centres undefined)
93

---

- Tested on: TDF
- Experiment: cell number relative to DMSO (% of DMSO); higher = more cells (less growth inhibition / toxicity)
- Conditions: concentration: 10 µM; 24 h
Parameter: cell number
Give bare numbers.

> print(dat)
                                   compound  target.entity    parameter  numeric.result
1         O=C(C=Cc1ccc(O)c(O)c1)OCCc1ccccc1            TDF  cell number            85.8
2  CC(C)NCC(O)COc1cccc2ccccc12.Cl (racemic)            TDF  cell number            91.5
3  Cl.Nc1nc2ccc(OC(F)(F)F)cc2s1 [Riluzole.HCl]            TDF  cell number            89.9
4  O=C(NOCC(O)CO)c1ccc(F)c(F)c1Nc1ccc(I)cc1F (stereo not given)            TDF  cell number             104

Lab note: next compound to report on.
Record lookup: for TDF, what cell number belongs to OCCOc1ccc(/C(=C(/CCCl)c2ccccc2)c2ccccc2)cc1 [2-{4-[(1Z)-4-chloro-1,2-diphenyl-1-butenyl]phenoxy}ethanol] ?
96.7

---

- Tested on: HCC1569
- Experiment: cell number relative to DMSO (% of DMSO); higher = more cells (less growth inhibition / toxicity)
- Conditions: concentration: 10 µM; 24 h
Parameter: cell number
Answers are plain numbers.

Provide the reported cell number of each entry below, same order.
1. COc1ccc2c(c1)CCC1C2CCC2(C)C(NCCCCCCN3C(=O)C=CC3=O)CCC12 (centres undefined)
2. CCN(CCO)CCCC(C)Nc1ccnc2cc(Cl)ccc12.O=S(=O)(O)O (centres undefined)
3. CN(C)CCC(c1ccc(Br)cc1)c1ccccn1.O=C(O)C=CC(=O)O (single isomer, unassigned; (+)) [(+)-Brompheniramine maleate]
4. CC(C)N(CCC(=O)c1ccc2ccccc2c1)Cc1ccccc1.Cl

1. 103
2. 99
3. 96.5
4. 96.2

Could you report cell number for every entry in the following list?
1. O=c1[nH]c2ccccc2n1CCCN1CCN(C(c2ccccc2)c2ccccc2)CC1 [Oxatomide]
2. Cl.Cl.Nc1nccc(-c2c(-c3ccc(F)cc3)ncn2C2CCCCC2)n1
3. COc1cccc(-c2cn(-c3ccc(CCN4CCC(O)CC4)cc3)c3ncnc(N)c23)c1
4. CC(CS)C(=O)N1CCCC1C(=O)O (centres undefined) [Captopril]
5. CCCNCC(O)COc1ccccc1C(=O)CCc1ccccc1 (centres undefined) [Propafenone]

98.3
80.6
45.9
98.4
103
